# System: UACC-62
# assayRemarks: NCI tumour cell line growth inhibition, 48 h
Calls of active or inactive are those of the source. No stated cut-off is given here; in the data, active = GI50 up to about 1.1 µM and inactive = higher.
Item-by-item account of GI50

Completed entries (count: 5):
[[record]]
molecule = "CCOC(=O)/C=C/c1ccccn1"
testsystem = "UACC-62"
resulttype = "GI50"
measurement = "> 100 µM (inactive)"

[[record]]
molecule = "COc1ccc2c(c1)c[n+](C)c1c3cc(OC)c(OC)cc3ccc21"
testsystem = "UACC-62"
resulttype = "GI50"
measurement = "11.3 µM (inactive)"

[[record]]
molecule = "Nc1ccc(S(=O)(=O)c2ccc(NCN3C(=O)NC(=O)C(=O)C3=O)cc2)cc1"
testsystem = "UACC-62"
resulttype = "GI50"
measurement = "> 100 µM (inactive)"

[[record]]
molecule = "C/C(=C\\COP(=O)(O)OP(=O)(O)O)CCCOCc1ccccc1"
testsystem = "UACC-62"
resulttype = "GI50"
measurement = "> 100 µM (inactive)"

[[record]]
molecule = "NC(=O)c1ncn2c(=O)n(CCCl)nnc12 [MITOZOLOMIDE]"
testsystem = "UACC-62"
resulttype = "GI50"
measurement = "24.7 µM (inactive)"


Task: State its GI50 for this molecule: "COc1cc2cc3c4c(cc(OC)c(OC)c4c2cc1OC)CCN3C(=O)CCC(=O)NCCCN(C)C"
Result: 47.6 µM (inactive)

====

# Tested on: U-251
# assayRemarks: NCI tumour cell line growth inhibition, 48 h
The source made the active and inactive calls. No stated cut-off is given here; in the data, active = GI50 up to about 1.1 µM and inactive = higher.
Mark one answer only. Choices: T (active), F (inactive)

[[record]]
compound = "CCCC(=O)N[C@H]1CCc2cc(OC)c(OC)c(OC)c2-c2ccc(SC)c(=O)cc21"
labelvalue = "T"

[[record]]
compound = "CC1CCN(C(C)C)P(=S)(Cc2ccccc2)O1 (configuration not stated)"
labelvalue = "F"

[[record]]
compound = "O=C(Nc1ccccn1)c1cc2c(cc1Cl)Sc1nccn1S2(=O)=O"
labelvalue = "F"

[[record]]
compound = "CN1C(=O)N(C)C2(CCN(CC(CC3OCCO3)c3ccc(F)cc3)CC2)C1=O (configuration not stated)"
labelvalue = "F"

[[record]]
compound = "Cc1ccc(-c2n[nH]c(=O)n2N)cc1"
labelvalue = "F"


Task: Can you look up the reported call for OC1c2ccccc2CCC1C(O)(C(F)(F)F)C(F)(F)F (configuration not stated) for me?
Result: F

Task: Can you look up the reported call for "COc1ccc(/C=C2\CN(C)C/C(=C\c3ccc(OC)c(OC)c3OC)C2=O)c(OC)c1OC" for me?
Result: T

Task: Can you look up the reported call for C1CCN(CCC2CCCCN2)CC1 (configuration not stated) for me?
Result: F

Task: Can you look up the reported call for "Cc1ccc2[nH]c(=O)c(-c3cnc(O)nn3)c(O)c2c1" for me?
Result: F

Task: Can you look up the reported call for CCOC(=O)CC1C(O)C(=O)N(C)C1c1ccccc1 (configuration not stated) for me?
Result: F

Task: Can you look up the reported call for CCCCCC(C)C[C@H]1CO[C@H](c2ccc[nH]2)N[C@H]1C(=O)OC (some centres not stated) for me?
Result: F

Task: Can you look up the reported call for COCCCN1C(=O)C2c3[nH]c4ccccc4c3C3CCC(C(C)(C)C)CC3C2C1=O (configuration not stated) for me?
Result: F

Task: Can you look up the reported call for COc1ccc2c(c1)C(CCN)C(=O)N2 (configuration not stated) for me?
Result: F
